src = the array DNA melting data of Ke et al. (doi:10.1101/2024.01.08.574731)

- assayProtocol: melting temperature; fluorescence melt of hairpins on a sequencing array, two-state fit, raised by 9.35 °C to match UV melts
- experimentalSetup: sodium 0.088 M
measuredAttribute: Tm (°C)
One number for each entry, in °C.

Examples with answers:
GGTCCCGAAAGGGAGACC ((((((....)))..)))    51.4
GCCTTCCGAAAGGAGGC (((.(((....))))))    59.4
GCATCCGAAAGGAATTGC ((((((....)))..)))    36.9

Quick batch: Tm for everything below.
1. GTGCGGACGAAAGTCCAC (((..(((....))))))
2. GCCAGGCGAAAGCGGGGC (((..((....))..)))
3. GCGTCGCGAAAGCCAAGC ((.(.((....)).).))

Response:
1: 60.9; 2: 63.2; 3: 48.1

* * *

For each record, write down the corresponding folding enthalpy.
- assayProtocol: folding enthalpy; higher = less favourable; fluorescence melt of hairpins on a sequencing array, two-state fit
- experimentalSetup: sodium 0.088 M
Numbers only, in kcal/mol.

Examples with answers:
GTATCCACGAAAGTGTAC (((..(((....))))))    -10.6
GACGCCGCGAAAGCGGTC (((..(((....))))))    -6.05

Quick batch: folding enthalpy for everything below.
1. GCGATGTTCGC ((((...))))
2. GAATTCGCGAAAGCGTTC (((..(((....))))))
3. GATCCTTTTTAGGATC ((((((....))))))
4. GGCCCAGGAAACTGGGTC (.(((((....))))).)
5. GATCCAAGGCTGGATC ((((((....))))))
6. GTCGTAGGAAACCACGAC (((((.(....).)))))
7. GAAAGCCGAAAGGCTTC (((.(((....))))))

Response:
1: -18.5; 2: -6.23; 3: -34.7; 4: -34.5; 5: -35.5; 6: -31.8; 7: -9.06

Quick batch: folding enthalpy for everything below.
1. GACGTCGGAAACGACGCC (.(((((....))))).)
2. GCTTACGGAAACGCAAGC ((((.((....)).))))
3. CGCAGCGGAAACGCAGCG (((.(((....))).)))
4. GATCGTCAGGACGATC ((((((....))))))

Response:
1. -11.6
2. -44.1
3. -29.9
4. -45.6

* * *

For each record, write down the corresponding folding enthalpy.
- assayProtocol: folding enthalpy; higher = less favourable; fluorescence melt of hairpins on a sequencing array, two-state fit
- experimentalSetup: sodium 0.088 M
Give bare numbers, in kcal/mol.

CGTCTCCGGAAACGGACG (((..(((....))))))    -14.7
GGTACACCGAAAGGTACC (((..(((....))))))    -20.5
GATCACCAAGTGATC ((((((...))))))    -36.8

Quick batch: folding enthalpy for everything below.
1. GGAATTCGAAAGAAGTCC (((.(((....))).)))
2. GATCATTTATATGATC ((((((....))))))
3. GTTTGAGGAAACTTAGAC ((.(.((....)).).))
4. GCCCAGCGAAAGCTTAGC ((..(((....)))..))
5. GGCCAACGAAAGTTCGCC (((.(((....))).)))
6. GCGTCAACACGC ((((....))))

Response:
1. -37.5
2. -35.6
3. -13.5
4. -8.7
5. -40.2
6. -21.8

Quick batch: folding enthalpy for everything below.
1. GATACCGAAAGGTGATC ((((((....))).)))
2. GATCTCCCTGGAGATC ((((((....))))))
3. GGCACCGGAAACGACGCC (((..((....))..)))
4. GTAGTCGAAAGACACTAC ((((((....)))..)))

Response:
1. -15.7
2. -43.7
3. -29.9
4. -19.7

Quick batch: folding enthalpy for everything below.
1. GACAAGACGAAAGTCGTC (((..(((....))))))
2. GTTTTTCCGAAAGGAAAC (((..(((....))))))
3. GTAACGGGAAACTGTTAC (((((.(....).)))))
4. GCCTAGCGAAAGCGACGC ((.(.((....)).).))
5. GACAGACGAAAGTCAGTC (((.(((....))).)))
6. GTAGGTCGAAAGACGTAC (((.(((....))).)))
7. GGCTTCGGAAACGAAACC ((.((((....)))).))
8. GTGTTTACGAAAGTACAC (((..(((....))))))

Response:
1. -13.1
2. -13.4
3. -30.4
4. -15.3
5. -28.2
6. -36.2
7. -25.4
8. -25

* * *

- assayProtocol: melting temperature; fluorescence melt of hairpins on a sequencing array, two-state fit, raised by 9.35 °C to match UV melts
- experimentalSetup: sodium 0.088 M
measuredAttribute: Tm (°C)
One number for each entry, in °C.

GGGATAGGAAACCATCCC (((((.(....).)))))    43.3
GCCCGCCGAAAGGCAGGC (((.(((....))).)))    69
GCAATCGGAAACGATCGC ((.((((....)))).))    47.2
GGGTAACGAAAGTTCCCC (((.(((....))).)))    50.6
GATCATAGAAATGATC ((((((....))))))    41.7
GCGTATAGACGC ((((....))))    50.3
GCCCGGGGAAACCCAGGC (((.(((....))).)))    52.8
GCATGGCGAAAGCCGGGC ((..(((....)))..))    60.4

Quick batch: Tm for everything below.
1. GCGTTAACACGC ((((....))))
2. GTCTCCGAAAGGACAGAC ((((((....)))..)))

Response:
[49.1, 37.2]

Quick batch: Tm for everything below.
1. GCCTGTCGAAAGACTGGC (((.(((....))).)))
2. GGAGCCGGAAACGACTCC ((((.((....)).))))

Response:
[61.2, 52]

* * *

- assayProtocol: folding enthalpy; higher = less favourable; fluorescence melt of hairpins on a sequencing array, two-state fit
- experimentalSetup: sodium 0.088 M
measuredAttribute: folding enthalpy

Quick batch: folding enthalpy for everything below.
1. GATTGGGGAAACCCGATC (((.(((....))).)))
2. GTTTAGCGAAAGCTGAAC (((.(((....))).)))
3. GCGTGGAAACGC ((((....))))
4. GCCTTGCGAAAGCAGCGC ((..(((....)))..))
5. GTTATGCCGAAAGGCAAC (((..(((....))))))

Response:
["-35 kcal/mol", "-30.4 kcal/mol", "-30.1 kcal/mol", "-14.6 kcal/mol", "-7.54 kcal/mol"]

Briefly, folding enthalpy measured for GCCTTGCGAAAGCTTGGC (((..((....))..))) : -20.9 kcal/mol

* * *

For each record, write down the corresponding folding enthalpy.
- assayProtocol: folding enthalpy; higher = less favourable; fluorescence melt of hairpins on a sequencing array, two-state fit
- experimentalSetup: sodium 0.088 M
Numbers only, in kJ/mol.

GTTCCCGAAAGGGCGAAC ((((((....)))..)))    -39.3

Quick batch: folding enthalpy for everything below.
1. GCAATCGGAAACGATCGC ((.((((....)))).))
2. GGACTGGGAAACCAGTTC (.(((((....))))).)
3. GATCTCAGTGGAGATC ((((((....))))))

Response:
1: -152; 2: -119; 3: -171

Quick batch: folding enthalpy for everything below.
1. GCCATCGAAAGATACGGC ((((((....)))..)))
2. GACACACCGAAAGGTGTC (((..(((....))))))
3. GCCTTGCGAAAGCGCGGC (((..((....))..)))
4. GCATCTGGAAACAAATGC ((((.((....)).))))
5. TGCGAGAAATCGCA (((((....)))))
6. GTCTCCGAAAGGAACGAC ((((((....)))..)))
7. GCCCCCGAAAGGGACGGC ((((((....)))..)))

Response:
-110
-33.5
-75.1
-91.1
-76.4
-98.3
-87.9

* * *

- assayProtocol: melting temperature; fluorescence melt of hairpins on a sequencing array, two-state fit, raised by 9.35 °C to match UV melts
- experimentalSetup: sodium 0.088 M
measuredAttribute: Tm (°C)
Give bare numbers, in °C.

GGACTGACGAAAGTCTCC (((..(((....))))))    28.6
GATCTTCGCCAAGATC ((((((....))))))    42
GCGGCTGGAAACAACCGC ((((.((....)).))))    54

Quick batch: Tm for everything below.
1. GCACCGCGAAAGCTGCGC ((.(.((....)).).))
2. GATCAATAATTTGATC ((((((....))))))
3. TTAACGAAAGTTAA (((((....)))))

Response:
[47.4, 43.2, 41.1]

Quick batch: Tm for everything below.
1. GCAATTGGAAACAACTGC (((.(((....))).)))
2. GCAGTCGGAAACGATTGC (((.(((....))).)))
3. GGTAAGCGAAAGCTCACC (((.(((....))).)))
4. GTGCGTGGAAACATGCAC ((((.((....)).))))
5. GACGAGGGAAACCTCGCC (.(((((....))))).)
6. GTAAACGAAAGTTTCTAC ((((((....)))..)))

Response:
1: 34.8; 2: 54.4; 3: 46.9; 4: 58.4; 5: 52.3; 6: 30.2

Quick batch: Tm for everything below.
1. GTGTGATCGAAAGATCAC (((..(((....))))))
2. GGTCGGGGAAACCCAACC (((.(((....))).)))

Response:
1. 66.7
2. 44.9
